Each entry below carries its recorded IC50.
tested on: K562 cell line; assay: Testing on K562 leukemia cell line (MTT cytotoxicity); format: cell-based, human; settings: K562 cells, 72 h incubation, preliminary screening, read-out: K562 (CML) IC50

compound	IC50
COC(=O)CC1(C(=O)OC2C(OC)=CC34CCCN3CCc3cc5c(cc3C24)OCO5)CCCC(C)(C)O1.COc1cc(C)c(C=CC(C)=CC=CC(C)=CC(=O)O)c(C)c1C (stereo not shown) [Example 19, anhydrohomoharringtonine "acitretinoate"]	> 100 nM
CC1(C)CC=C(c2cnc3ccccc3c2)c2cc(C(=O)Nc3ccc(C(=O)O)cc3)ccc21.COC(=O)CC(O)(CCCC(C)(C)O)C(=O)O[C@@H]1C(OC)=C[C@]23CCCN2CCc2cc4c(cc2[C@H]13)OCO4 (stereo partly shown)	< 50 nM
CC(C=CC1=C(C)CCCC1(C)C)=CC=CC(C)=CC(=O)O.COC(=O)CC(O)(CCCC(C)(C)O)C(=O)OC1C(OC)=CC23CCCN2CCc2cc4c(cc2C13)OCO4 (stereo not drawn) [Example 3, homoharringtonine 13-cis-retinoate]	< 50 nM
CC1(C)CCC(C)(C)c2cc(NC(=O)c3ccc(C(=O)O)cc3)ccc21.COC(=O)CC(O)(CCCC(C)(C)O)C(=O)OC1C(OC)=CC23CCCN2CCc2cc4c(cc2C13)OCO4 (stereo not shown) [Example 5, homoharringtonine tamibarotenoate]	< 20 nM
CC1=C(/C=C/C(C)=C/C=C/C(C)=C/C(=O)O)C(C)(C)CCC1.COC(=O)C[C@@]1(C(=O)O[C@@H]2C(OC)=C[C@]34CCCN3CCc3cc5c(cc3[C@H]24)OCO5)CCCC(C)(C)O1 (relative stereo)	< 50 nM
COC(=O)CC(O)(CCCC(C)(C)O)C(=O)OC1C(OC)=CC23CCCN2CCc2cc4c(cc2C13)OCO4.COc1cc(C)c(C=CC(C)=CC=CC(C)=CC(=O)O)c(C)c1C (stereo not shown) [Example 4, homoharringtonine "acitretinoate"]	< 50 nM
COC(=O)CC(O)(CCC(C)(C)O)C(=O)OC1C(OC)=CC23CCCN2CCc2cc4c(cc2C13)OCO4.COc1cc(C)c(C=CC(C)=CC=CC(C)=CC(=O)O)c(C)c1C (stereo not shown) [Example 17, harringtonine acitretinate]	< 50 nM
CC1=C(/C=C/C(C)=C/C=C/C(C)=C/C(=O)O)C(C)(C)CCC1.COC(=O)C[C@](O)(CCCC(C)(C)O)C(=O)O[C@@H]1C(OC)=C[C@]23CCCN2CCc2cc4c(cc2[C@H]13)OCO4 (relative stereo) [Example 1, homoharringtonine all-trans-retinoate]	< 50 nM
COC(=O)CC(O)(CCCC(C)(C)O)C(=O)O[C@@H]1C(OC)=C[C@]23CCCN2CCc2cc4c(cc2[C@H]13)OCO4.Cc1ccc(C2=CCC(C)(C)c3ccc(C#Cc4ccc(C(=O)O)cc4)cc32)cc1 (stereo partly shown)	< 50 nM
CC1(C)C(=O)C(C)(C)c2cc(C(=O)Nc3ccc(C(=O)O)cc3)ccc21.COC(=O)CC(O)(CCCC(C)(C)O)C(=O)O[C@@H]1C(OC)=C[C@]23CCCN2CCc2cc4c(cc2[C@H]13)OCO4 (stereo partly shown)	< 50 nM
COC(=O)CC(O)(CCCC(C)(C)O)C(=O)OC1C(OC)=CC23CCCN2CCc2cc4c(cc2C13)OCO4.O=C(O)C=Cc1ccc(-c2ccc(O)c(C34CC5CC(CC(C5)C3)C4)c2)cc1 (stereo not shown) [Example 6, homoharringtonine "adarotenoate"]	< 50 nM
COC(=O)C[C@](O)(CCC(C)(C)O)C(=O)O[C@@H]1C(OC)=C[C@]23CCCN2CCc2cc4c(cc2[C@H]13)OCO4.COc1ccc(-c2ccc3cc(C(=O)O)ccc3c2)cc1C12CC3CC(CC(C3)C1)C2 [Example 9, harringtonine "adapalenoate"]	< 100 nM
C=C(c1ccc(C(=O)O)cc1)c1cc2c(cc1C)C(C)(C)CCC2(C)C.COC(=O)C[C@](O)(CCCC(C)(C)O)C(=O)O[C@@H]1C(OC)=C[C@]23CCCN2CCc2cc4c(cc2[C@H]13)OCO4 [Example 7, homoharringtonine "bexarotenoate"]	< 20 nM
CC(C=CC1=C(C)CCCC1(C)C)=CC=CC(C)=CC(=O)O.COC(=O)CC(O)(CCC(C)(C)O)C(=O)OC1C(OC)=CC23CCCN2CCc2cc4c(cc2C13)OCO4 (stereo not drawn) [Example 2, harringtonine all-trans-retinoate]	< 100 nM
CC1(C)CCC(C)(C)c2cc(C(=O)Nc3ccc(C(=O)O)cc3)ccc21.COC(=O)C[C@](O)(CCCC(C)(C)O)C(=O)O[C@@H]1C(OC)=C[C@]23CCCN2CCc2cc4c(cc2[C@H]13)OCO4 [Example 23, homoharringtonine Am 580 salt]	< 50 nM
COC(=O)CC(O)(CCCC(C)(C)O)C(=O)O[C@@H]1C(OC)=C[C@]23CCCN2CCc2cc4c(cc2[C@H]13)OCO4.O=C(O)c1ccc2cc(-c3ccc(O)c(C45CC6CC(CC(C6)C4)C5)c3)ccc2c1 (stereo partly shown)	< 50 nM

Numbers sourced from patent EP3763715A1.
